TARGET_ENTITY: T1, recombinant IL-17RA-Fc (UniProt Q96F46 33-320)
T1 construct: Bought reagent; also called R & D systems cat #177-IR-100; receptor; not shown: Fc part of the bought fusion, not described
RUN_DESCRIPTION: specificity ELISA on coated antigen, VH concentration not given

- BINDER: "VH 1.10.1 (clone 1.10 expressed from phagemid vector: with linker residues and His tag) (VHH, Human single VH domain) VHH: EVQLVESGGGLVQPGGSLRLSCAASGFTFSSYRMYWVRQAPGKGLEWVASIEQDGSEEYYVDSVKGRFTISRDNAKKSLFLQMNSLRAEDTAVYYCAKGEILPLYFDYWGQGTLVTVSS"
  binding result: "no binding"
- BINDER: "VH 1.3.1 (clone 1.3 expressed from phagemid vector: with linker residues and His tag) (VHH, Human single VH domain; also called Clone 1.3 prep 1; Clone 1.3 prep 2) VHH: EVQLVESGGGLVQPGGSLRLSCAASGFTFSSYSMYWVRQAPGKGLEWVAEIKQDGSVQYYVDSVKGRFTISRDNAKNSLYLQMNSLRAEDTAVYYCAKGEILPLYFDYWGQGTLVTVSS"
  binding result: "no binding"
